# Test system: THP-1 cells
# assay.remarks: TNFα generation assay
# Format: cell-based, human
# details: Homo sapiens, THP-1, THP-1 cells; Table 22; read-out: IC50 in TNFα generation assay
Below is a list of entries, each paired with its recorded IC50 value.

Illustrative cases are given below, each with its answer.
INSERT INTO assay_data (molecule, value_measured) VALUES
  ('CCOc1nn(CC)c2ccc(Nc3nc(N[C@H](CC)[C@H](C)N)c(F)cc3C(N)=O)cc12', '0.065 to 0.13 µM'),
  ('CC[C@@H](Nc1nc(Nc2ccc3c(OC)nccc3c2)c(C(N)=O)cc1F)[C@H](C)N', '< 0.065 µM'),
  ('NC(=O)c1cc(F)c(N[C@@H]2CCCC[C@@H]2N)nc1Nc1cncc(-c2cnn(Cc3ccccc3)c2)c1 (relative stereo)', '0.13 to 0.2 µM'),
  ('CC(C)C[C@H](CN)Nc1nc(Nc2cncc(-n3cccn3)c2)c(C(N)=O)cc1F', '0.065 to 0.13 µM'),
  ('C[C@H](N)[C@@H](C)Nc1nc(Nc2cncc(Cl)c2)c(C(N)=O)cc1F', '0.065 to 0.13 µM');

# "NC(=O)c1cc(F)c(N[C@@H]2CCCC[C@@H]2N)nc1Nc1cncc(-c2ccccn2)c1" with THP-1 cells: IC50 is 0.13 to 0.2 µM

# CNc1ccc(-c2cncc(Nc3nc(N[C@@H]4CCCC[C@@H]4N)c(F)cc3C(N)=O)c2)cc1 (relative stereo) with THP-1 cells: IC50 is 0.065 to 0.13 µM

====

# study.system: glutathione S-transferase (GST)-fused full-length human Syk protein (Homo sapiens)
# Construct: (GST)-fused full-length human Syk protein; GST (glutathione S-transferase); purchased Carna Biosciences
# assay.remarks: Syk enzyme assay
# Assay type: biochemical
# details: Syk enzyme assay, Test Example 1; read-out: IC50 of Syk-inhibitory activity
pIC50: −log10 of the molar value.
property.measured: pIC50

Illustrative cases are given below, each with its answer.
INSERT INTO measurements (compound, study_system, value_measured) VALUES
  ('CCCc1nn(C)c2ccc(Nc3nc(N[C@@H]4CCCC[C@@H]4N)c(F)cc3C(N)=O)cc12 [Example 006-456]', 'glutathione S-transferase (GST)-fused full-length human Syk protein (Homo sapiens)', '> 8.00'),
  ('NC(=O)c1cc(F)c(N[C@@H]2CCCC[C@@H]2N)nc1Nc1ccc2nc(-n3cccn3)cnc2c1 (relative stereo) [Example 004-208]', 'glutathione S-transferase (GST)-fused full-length human Syk protein (Homo sapiens)', '> 8.00'),
  ('CCc1nn(C2CC2)c2ccc(Nc3nc(N[C@@H]4CCCC[C@@H]4N)c(F)cc3C(N)=O)cc12 [Example 006-478]', 'glutathione S-transferase (GST)-fused full-length human Syk protein (Homo sapiens)', '> 8.00');

# compound C[C@H](N)[C@H](Nc1nc(Nc2cncc(F)c2)c(C(N)=O)cc1F)C1CC1 [Example 006-372] ; its pIC50 = 7.30 to 8.00

# compound NC(=O)c1cc(F)c(NC2CCCCC2N)nc1Nc1ccnc(-c2cccc3cccnc23)c1 (stereo not shown) [Example 002-182] ; its pIC50 = 6.00 to 7.00

# compound CC[C@H](N)[C@@H](CC)Nc1nc(Nc2cccc3c2cnn3C)c(C(N)=O)cc1F [Example 006-367] ; its pIC50 = 7.30 to 8.00

# compound CCc1nn(C)c2ccc(Nc3nc(N[C@H](C4CC4)[C@H](C)N)c(F)cc3C(N)=O)cc12 [Example 006-578] ; its pIC50 = > 8.00
